// data source = ChEMBL document CHEMBL3808334

System: MCF7
Assay: Growth inhibition of human MCF7 cells assessed as cell growth at 10^-5 M incubated for 48 hrs by sulforhodamine B assay
Format: functional
Settings: MCF7, 48 h, read-out: Activity
// reported growth at 10 µM per item
Could you give me the number in %? Just the number is fine.

>>> quantitative_readout("c1ccc(-c2nc(Nc3ccc(-c4nc5ccccc5[nH]4)cc3)nc(N3CCOCC3)n2)cc1")
-57
>>> quantitative_readout("Fc1ccc(-c2nc(Nc3ccc(-c4nc5ccccc5[nH]4)cc3)nc(N3CCOCC3)n2)cc1")
1
>>> quantitative_readout("c1ccc2[nH]c(-c3ccc(Nc4nc(N5CCCCC5)nc(N5CCOCC5)n4)cc3)nc2c1")
-10

Okay, now this compound:
# input What does the record list as growth at 10 µM for `Clc1ccc(-c2nc(Nc3ccc(-c4nc5ccccc5[nH]4)cc3)nc(N3CCOCC3)n2)cc1` ?
# output -66

----------
Parameter growth at 0.01 µM: see the listing below.
Tested on: 786-0
Assay: Growth inhibition of human 786-0 cells assessed as cell growth at 10^-8 M incubated for 48 hrs by sulforhodamine B assay
Format: functional
Conditions: 786-0, 48 h, read-out: Activity

Check out these entries, answers already filled in.
>>> result("Fc1ccc(-c2nc(Nc3ccc(-c4nc5ccccc5[nH]4)cc3)nc(N3CCOCC3)n2)cc1")
"100%"
>>> result("c1ccc2[nH]c(-c3ccc(Nc4nc(N5CCCCC5)nc(N5CCOCC5)n4)cc3)nc2c1")
"99%"
>>> result("c1ccc(-c2nc(Nc3ccc(-c4nc5ccccc5[nH]4)cc3)nc(N3CCOCC3)n2)cc1")
"99%"

Query compound follows.
# input Can you look up the measured growth at 0.01 µM of `Clc1ccc(-c2nc(Nc3ccc(-c4nc5ccccc5[nH]4)cc3)nc(N3CCOCC3)n2)cc1` for me?
# output 99%

----------
Listed molecules paired with reported growth at 10 µM
System: NCI-H322M
Test: Growth inhibition of human NCI-H322M cells assessed as cell growth at 10^-5 M incubated for 48 hrs by sulforhodamine B assay
Format: functional
Settings: read-out: Activity
Use % as the unit, but write only the number.

# input Tell me reported growth at 10 µM for `c1ccc2[nH]c(-c3ccc(Nc4nc(N5CCCCC5)nc(N5CCOCC5)n4)cc3)nc2c1` , tested with NCI-H322M.
# output 29

# input Notebook entry, NCI-H322M assay: growth at 10 µM of `Clc1ccc(-c2nc(Nc3ccc(-c4nc5ccccc5[nH]4)cc3)nc(N3CCOCC3)n2)cc1` = ?
# output -80

# input Query for NCI-H322M: what growth at 10 µM does the record show for `c1ccc(-c2nc(Nc3ccc(-c4nc5ccccc5[nH]4)cc3)nc(N3CCOCC3)n2)cc1` ?
# output -79

# input Hello, I am looking for reported growth at 10 µM with NCI-H322M for `Fc1ccc(-c2nc(Nc3ccc(-c4nc5ccccc5[nH]4)cc3)nc(N3CCOCC3)n2)cc1` . Could you help?
# output 16

----------
Test: Growth inhibition of human SKOV3 cells assessed as cell growth at 10^-6 M incubated for 48 hrs by sulforhodamine B assay
Type: functional
Conditions: SK-OV-3, 48 h, read-out: Activity
The entries below are paired with their reported growth at 1 µM.
Hi! Could you send only the number? It should be in %, unit omitted.

Some compounds with recorded growth at 1 µM:
>>> quantitative_readout("c1ccc2[nH]c(-c3ccc(Nc4nc(N5CCCCC5)nc(N5CCOCC5)n4)cc3)nc2c1")
102
>>> quantitative_readout("Fc1ccc(-c2nc(Nc3ccc(-c4nc5ccccc5[nH]4)cc3)nc(N3CCOCC3)n2)cc1")
101
>>> quantitative_readout("c1ccc(-c2nc(Nc3ccc(-c4nc5ccccc5[nH]4)cc3)nc(N3CCOCC3)n2)cc1")
104

We now examine a further compound.
# input Look up growth at 1 µM for this compound: `Clc1ccc(-c2nc(Nc3ccc(-c4nc5ccccc5[nH]4)cc3)nc(N3CCOCC3)n2)cc1`
# output 102
